molecular target: hAM2 receptor (CALCRL:RAMP3) (Homo sapiens, UniProt O60896+Q16602); construct: expressed in transfected cells; host or cells: GeneBLAzer CALCRL:RAMP3-CRE-bla Freestyle 293F; experiment: AM2 receptor antagonist activity measured by cAMP assay (HTRF); type: cell-based; conditions: % MPE: percent of the maximal possible effect; agonist human adrenomedullin; read-out: hAM2-R Efficacy Antag (%) Ave
Sequence (Q16602 23-461): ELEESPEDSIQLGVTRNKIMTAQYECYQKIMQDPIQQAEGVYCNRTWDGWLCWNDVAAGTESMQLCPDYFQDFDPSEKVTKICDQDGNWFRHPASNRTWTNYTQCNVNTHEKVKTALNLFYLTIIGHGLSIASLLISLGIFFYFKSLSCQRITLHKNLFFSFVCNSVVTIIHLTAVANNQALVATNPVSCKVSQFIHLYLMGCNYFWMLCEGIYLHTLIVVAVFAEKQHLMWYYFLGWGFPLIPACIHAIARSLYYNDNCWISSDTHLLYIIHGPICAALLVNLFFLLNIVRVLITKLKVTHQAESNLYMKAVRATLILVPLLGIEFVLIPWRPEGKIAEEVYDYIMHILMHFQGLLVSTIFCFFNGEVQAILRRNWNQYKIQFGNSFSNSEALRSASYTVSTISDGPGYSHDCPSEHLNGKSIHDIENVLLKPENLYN
Sequence (O60896 24-148): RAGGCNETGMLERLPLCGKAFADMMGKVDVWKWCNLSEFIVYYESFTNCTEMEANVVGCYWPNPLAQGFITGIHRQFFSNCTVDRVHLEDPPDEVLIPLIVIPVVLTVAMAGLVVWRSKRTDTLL
Numbered stars: 1 amine (or outer) side, 2 acyl side, 3 side chain; on linkers, the order of the positions; unused ones are H or OH. Bridge positions count the residues as written; N and C are the ends. Square brackets hold non-standard residues; d marks the D form. Peptide text beside a SMILES is read from it. * marks the point of attachment. Phe(3-CH2NH2) = O=C([C@H](Cc1cccc(CN[*:3])c1)N[*:1])[*:2]; Phe(2-CONH2) = NC(=O)c1ccccc1C[C@H](N)C(=O)O; X5 = O=C([C@H](Cc1ccc(CO)cc1)N[*:1])[*:2]; Imidazole4carbonyl = O=C(c1cnc[nH]1)*; Picolinoyl(5-F) = O=C(c1ccc(F)cn1)*; Lys(Me2) = CN(C)CCCC[C@H](N)C(=O)O; Orn(iPr) = CC(C)NCCC[C@H](N)C(=O)O; Oxazole2carbonyl = O=C(c1ncco1)*; 3Pal = N[C@@H](Cc1cccnc1)C(=O)O; X4 = O=C(c1ncccc1[N+](=O)[O-])*; ΔPro = O=C(O)[C@@H]1C=CCN1; Orn = NCCC[C@H](N)C(=O)O; X6 = O=C(c1ccncn1)*
Measurement kind: Emax (%)
Please respond with the number in % and leave the unit unwritten.

Example results:
Compound	Measurement kind	Unit of measurement	Measured number
CC(C)[C@@H]1NC(=O)[C@H](CC(=O)O)NC(=O)[C@H](CCCNC(=N)N)NC(=O)[C@@H](NC(=O)[C@H](Cc2ccc(O)cc2)NC(=O)[C@H](NC(=O)c2ncccc2[N+](=O)[O-])C(C)C)CSSC[C@@H](C(=O)N[C@@H](Cc2cccnc2)C(N)=O)NC(=O)[C@H](Cc2ccccc2)NC(=O)[C@@H]2CCCN2C(=O)CNC1=O [Compound 50] (X4-[dV]YCRDVGPFC[3Pal]-NH2; disulfide 3-10)	Emax	%	99
CC(C)NCCC[C@@H]1NC(=O)[C@@H](NC(=O)[C@H](Cc2ccc(O)cc2)NC(=O)[C@H](NC(=O)c2ccc(F)cn2)C(C)C)CSSC[C@@H](C(=O)N[C@@H](Cc2cccnc2)C(N)=O)NC(=O)[C@H](Cc2ccc(CO)cc2)NC(=O)[C@@H]2CCCN2C(=O)CNC(=O)[C@H](C(C)C)NC(=O)[C@H](CC(=O)O)NC1=O [Compound 61] ({Picolinoyl(5-F)}-[dV]YC[Orn(iPr)]DVGP[X5]C[3Pal]-NH2; disulfide 3-10)	Emax	%	100
CC(C)[C@@H]1NC(=O)[C@H](CC(=O)O)NC(=O)[C@H](CCCNC(=O)[C@@H](N)CCCCN(C)C)NC(=O)[C@@H](NC(=O)[C@H](Cc2ccc(O)cc2)NC(=O)[C@H](NC(=O)c2ncco2)C(C)C)CSSC[C@@H](C(=O)N[C@@H](Cc2cccnc2)C(N)=O)NC(=O)[C@H](Cc2ccccc2)NC(=O)[C@@H]2CCCN2C(=O)CNC1=O [Compound 44] (Oxazole2carbonyl-[dV]YC[Orn](Lys(Me2))DVGPFC[3Pal]-NH2; disulfide 3-10)	Emax	%	100

Supply reported Emax belonging to this compound: CC(C)[C@@H]1NC(=O)[C@H](CC(=O)O)NC(=O)[C@H](CCCNC(=N)N)NC(=O)[C@@H](NC(=O)[C@H](Cc2ccc(O)cc2)NC(=O)[C@H](NC(=O)c2c[nH]cn2)C(C)C)CSSC[C@@H](C(=O)N[C@@H](Cc2cccnc2)C(N)=O)NC(=O)[C@H](Cc2ccccc2)NC(=O)[C@@H]2CCCN2C(=O)CNC1=O [Compound 47] (Imidazole4carbonyl-[dV]YCRDVGPFC[3Pal]-NH2; disulfide 3-10)
99

Supply reported Emax belonging to this compound: CC(C)[C@@H]1NC(=O)[C@H](CC(=O)O)NC(=O)[C@H](CCCNC(=N)N)NC(=O)[C@@H](NC(=O)[C@H](Cc2ccccc2C(N)=O)NC(=O)[C@H](NC(=O)c2ccncn2)C(C)C)CSSC[C@@H](C(=O)N[C@@H](Cc2cccnc2)C(N)=O)NC(=O)[C@H](Cc2cccc(CN)c2)NC(=O)[C@@H]2C=CCN2C(=O)CNC1=O [Compound 31] (X6-[dV][Phe(2-CONH2)]CRDVG[ΔPro][Phe(3-CH2NH2)]C[3Pal]-NH2; disulfide 3-10)
100

* * *

Listed here: items and their measured Emax.
target: hCGRP receptor (CALCRL:RAMP1) (Homo sapiens, UniProt O60894+Q16602); construct: host or cells: GeneBLAzer CALCRL:RAMP1-CRE-bla Freestyle 293F; assay: CGRP receptor antagonist activity measured by cAMP assay (HTRF); format: cell-based; conditions: % MPE: percent of the maximal possible effect; agonist human α-CGRP; read-out: hCGRP-R Efficacy Antag (%) Ave
Sequence (Q16602 23-461): as the sequence (Q16602 23-461) above
Sequence (O60894 27-148): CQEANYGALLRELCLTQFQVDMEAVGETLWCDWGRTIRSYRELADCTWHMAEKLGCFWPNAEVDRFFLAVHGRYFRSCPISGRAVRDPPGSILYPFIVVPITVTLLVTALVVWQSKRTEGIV
Numbered stars: 1 amine (or outer) side, 2 acyl side, 3 side chain; on linkers, the order of the positions; unused ones are H or OH. Bridge positions count the residues as written; N and C are the ends. Square brackets hold non-standard residues; d marks the D form. Peptide text beside a SMILES is read from it. * marks the point of attachment. X3 = NCc1ccccc1C[C@H](N[*:1])C(=O)[*:2]; 3Pal = N[C@@H](Cc1cccnc1)C(=O)O; X4 = O=C(c1ncccc1[N+](=O)[O-])*; X2 = Cc1n[nH]c(C(=O)*)n1
Please respond with the number in % and leave the unit unwritten.

Compound	Unit of measurement	Measured number
CC(C)[C@@H]1NC(=O)[C@H](CC(=O)O)NC(=O)[C@H](CCCNC(=N)N)NC(=O)[C@@H](NC(=O)[C@H](Cc2ccc(O)cc2)NC(=O)[C@H](NC(=O)c2ncccc2[N+](=O)[O-])C(C)C)CSSC[C@@H](C(=O)N[C@@H](Cc2cccnc2)C(N)=O)NC(=O)[C@H](Cc2ccccc2)NC(=O)[C@@H]2CCCN2C(=O)CNC1=O [Compound 50] (X4-[dV]YCRDVGPFC[3Pal]-NH2; disulfide 3-10)	%	100

Supply reported Emax belonging to this compound: Cc1n[nH]c(C(=O)N[C@@H](C(=O)N[C@@H](Cc2ccc(O)cc2)C(=O)N[C@H]2CSSC[C@@H](C(=O)N[C@@H](Cc3cccnc3)C(N)=O)NC(=O)[C@H](Cc3ccccc3CN)NC(=O)[C@@H]3CCCN3C(=O)CNC(=O)[C@H](C(C)C)NC(=O)[C@H](CC(=O)O)NC(=O)[C@H](CCCNC(=N)N)NC2=O)C(C)C)n1 [Compound 53] (X2-[dV]YCRDVGP[X3]C[3Pal]-NH2; disulfide 3-10)
100

* * *

biological target: hCGRP receptor (CALCRL:RAMP1) (Homo sapiens, UniProt O60894+Q16602); construct: host or cells: GeneBLAzer CALCRL:RAMP1-CRE-bla Freestyle 293F; assay: CGRP receptor antagonist activity measured by cAMP assay (HTRF); format: cell-based; details: GeneBLAzer CALCRL:RAMP1-CRE-bla Freestyle 293F cells; agonist human α-CGRP; 30 minutes; read-out: hCGRP-R IC50 Ave
Numbered stars: 1 amine (or outer) side, 2 acyl side, 3 side chain; on linkers, the order of the positions; unused ones are H or OH. Bridge positions count the residues as written; N and C are the ends. Square brackets hold non-standard residues; d marks the D form. Peptide text beside a SMILES is read from it. * marks the point of attachment. Phe(3-CH2NH2) = O=C([C@H](Cc1cccc(CN[*:3])c1)N[*:1])[*:2]; Phe(3-CONH2) = NC(=O)c1cccc(C[C@H](N)C(=O)O)c1; Phe(2-CONH2) = NC(=O)c1ccccc1C[C@H](N)C(=O)O; X5 = O=C([C@H](Cc1ccc(CO)cc1)N[*:1])[*:2]; Phe(4-NH2) = Nc1ccc(C[C@H](N)C(=O)O)cc1; Picolinoyl(5-F) = O=C(c1ccc(F)cn1)*; Orn(iPr) = CC(C)NCCC[C@H](N)C(=O)O; Oxazole2carbonyl = O=C(c1ncco1)*; 3Pal = N[C@@H](Cc1cccnc1)C(=O)O; ΔPro = O=C(O)[C@@H]1C=CCN1
Measurement kind: IC50 (nM)
Please respond with the number in nM and leave the unit unwritten.

Compound	Tested system	Unit of measurement	IC50
CC(C)NCCC[C@@H]1NC(=O)[C@@H](NC(=O)[C@H](Cc2ccccc2C(N)=O)NC(=O)[C@H](NC(=O)c2ncco2)C(C)C)CSSC[C@@H](C(=O)N[C@@H](Cc2cccnc2)C(N)=O)NC(=O)[C@H](Cc2ccc(O)cc2)NC(=O)[C@@H]2C=CCN2C(=O)CNC(=O)[C@H](C(C)C)NC(=O)[C@H](CC(=O)O)NC1=O [Compound 57] (Oxazole2carbonyl-[dV][Phe(2-CONH2)]C[Orn(iPr)]DVG[ΔPro]YC[3Pal]-NH2; disulfide 3-10)	hCGRP receptor (CALCRL:RAMP1) (Homo sapiens, UniProt O60894+Q16602)	nM	0.12
CC(C)[C@@H]1NC(=O)[C@H](CC(=O)O)NC(=O)[C@H](CCCNC(=N)N)NC(=O)[C@@H](NC(=O)[C@H](Cc2cccc(CN)c2)NC(=O)[C@H](NC(=O)c2ncco2)C(C)C)CSSC[C@@H](C(=O)N[C@@H](Cc2cccnc2)C(N)=O)NC(=O)[C@H](Cc2cccc(C(N)=O)c2)NC(=O)[C@@H]2C=CCN2C(=O)CNC1=O [Compound 23] (Oxazole2carbonyl-[dV][Phe(3-CH2NH2)]CRDVG[ΔPro][Phe(3-CONH2)]C[3Pal]-NH2; disulfide 3-10)	hCGRP receptor (CALCRL:RAMP1) (Homo sapiens, UniProt O60894+Q16602)	nM	0.05
CC(C)NCCC[C@@H]1NC(=O)[C@@H](NC(=O)[C@H](Cc2ccc(O)cc2)NC(=O)[C@H](NC(=O)c2ccc(F)cn2)C(C)C)CSSC[C@@H](C(=O)N[C@@H](Cc2cccnc2)C(N)=O)NC(=O)[C@H](Cc2ccc(CO)cc2)NC(=O)[C@@H]2CCCN2C(=O)CNC(=O)[C@H](C(C)C)NC(=O)[C@H](CC(=O)O)NC1=O [Compound 61] ({Picolinoyl(5-F)}-[dV]YC[Orn(iPr)]DVGP[X5]C[3Pal]-NH2; disulfide 3-10)	hCGRP receptor (CALCRL:RAMP1) (Homo sapiens, UniProt O60894+Q16602)	nM	0.1
CC(C)NCCC[C@@H]1NC(=O)[C@@H](NC(=O)[C@H](Cc2ccccc2C(N)=O)NC(=O)[C@H](NC(=O)c2ncco2)C(C)C)CSSC[C@@H](C(=O)N[C@@H](Cc2cccnc2)C(N)=O)NC(=O)[C@H](Cc2ccccc2)NC(=O)[C@@H]2CCCN2C(=O)CNC(=O)[C@H](C(C)C)NC(=O)[C@H](CC(=O)O)NC1=O [Compound 30] (Oxazole2carbonyl-[dV][Phe(2-CONH2)]C[Orn(iPr)]DVGPFC[3Pal]-NH2; disulfide 3-10)	hCGRP receptor (CALCRL:RAMP1) (Homo sapiens, UniProt O60894+Q16602)	nM	0.11

Continue with the compound presented below.
Name the value of IC50 reported for CC(C)NCCC[C@@H]1NC(=O)[C@@H](NC(=O)[C@H](Cc2ccccc2C(N)=O)NC(=O)[C@H](NC(=O)c2ncco2)C(C)C)CSSC[C@@H](C(=O)N[C@@H](Cc2cccnc2)C(N)=O)NC(=O)[C@H](Cc2ccc(N)cc2)NC(=O)[C@@H]2C=CCN2C(=O)CNC(=O)[C@H](C(C)C)NC(=O)[C@H](CC(=O)O)NC1=O [Compound 59] (Oxazole2carbonyl-[dV][Phe(2-CONH2)]C[Orn(iPr)]DVG[ΔPro][Phe(4-NH2)]C[3Pal]-NH2; disulfide 3-10) when tested on hCGRP receptor (CALCRL:RAMP1) (Homo sapiens, UniProt O60894+Q16602).
0.17
